- system: UniProt P00734
- assay_protocol: Sub-library screen for active and permeable cyclic peptides (PAMPA plus thrombin inhibition)
- Type: biochemical
- experimental_conditions: PAMPA acceptor well after 14 h, 5 μM donor; crude; slopes normalized to DMSO
quantity_name: Residual thrombin activity: Top sample
Quick one: just the number, no unit, thanks!

Item COc1ccc(C[C@@H]2NC(=O)[C@@H](NC(=O)c3ccc(Cl)s3)CSCc3cccc(c3)CSCCNC(=O)C[C@H]3CCCN3C2=O)cc1 has what recorded Residual thrombin activity: Top sample?
99.7

Item N#Cc1ccc(C[C@@H]2NC(=O)[C@@H](NC(=O)c3ccc(Cl)s3)CSCC(=O)CSCCNC(=O)C[C@H]3CCCN3C2=O)cc1 has what recorded Residual thrombin activity: Top sample?
96.3

Item O=C1C[C@H]2CCCN2C(=O)[C@H](Cc2ccc(Cl)cc2)NC(=O)[C@@H](NC(=O)c2ccc(Cl)s2)CCCSCc2ccccc2CSCCN1 has what recorded Residual thrombin activity: Top sample?
94.7

====

In this section, each of the compounds is paired with its reported half-life.
- assay_protocol: Metabolic stability in rat liver microsomes (RLMs)
- experimental_conditions: rat, microsomes, Metabolic stability: Half life T1/2 (min), RLMs; mean and SD, three measurements
Report the figure in min without appending any unit label.

Reference set, count: 6
CN1CCC(=O)NCCSCC(=O)CSC[C@H](NC(=O)c2cccc(C(F)(F)F)c2)C(=O)N2CCC[C@@H](C2)C1=O
37
C[C@@H]1NC(=O)[C@@H](NC(=O)c2ccc(Cl)s2)CNC(=O)CCSCc2cccc(n2)CSCCNC1=O
13.5
O=C1CC2CCN(CC2)C(=O)[C@H](Cc2ccccc2)NC(=O)[C@@H](NC(=O)c2ccc(Cl)s2)CSCc2cccc(n2)CSCCN1
17
O=C1C[C@H]2CCCN2C(=O)[C@H](Cc2ccccc2)NC(=O)[C@@H](NC(=O)c2ccc(Cl)s2)CSC/C=C/CSCCN1 [peptide 32]
5.3
C[C@@H]1NC(=O)[C@@H](NC(=O)c2ccc(Cl)s2)CSCc2cccc(n2)CSCCNC(=O)[C@H]2CCCN(C2)C1=O
19.7
O=C1CCSCc2cccc(n2)CSCCNC(=O)[C@H](CO)NC(=O)[C@@H](NC(=O)c2ccc(Cl)s2)CN1
12.1

Item O=C1CC2CCN(CC2)C(=O)[C@H](Cc2ccccc2)NC(=O)[C@@H](NC(=O)c2ccc(Cl)s2)CSCCS(=O)(=O)CCSCCN1 has what recorded half-life?
9.5

Item O=C1C[C@H]2CCCN2C(=O)[C@H](Cc2ccccc2)NC(=O)[C@@H](NC(=O)c2ccc(Cl)s2)CCSCc2cccc(n2)CSCCN1 has what recorded half-life?
23

Item O=C1C[C@H]2CCCN2C(=O)[C@H](Cc2ccccc2)NC(=O)[C@@H](NC(=O)c2ccc(Cl)s2)CCCSC/C=C/CSCCN1 has what recorded half-life?
21

Item O=C1C[C@H]2CCCN2C(=O)[C@H](Cc2ccccc2)NC(=O)[C@@H](NC(=O)c2ccc(Cl)s2)CCSC/C=C/CSCCN1 has what recorded half-life?
19

Item NC(=O)NCCC[C@@H]1NC(=O)C2CN(CCN2C(=O)C2CCCN2S(=O)(=O)c2ccc(F)cc2)C(=O)CCSC/C=C/CSCCNC1=O (stereo partly shown) [peptide 4] has what recorded half-life?
35

Item O=C1C[C@H]2CCCN2C(=O)[C@H](Cc2ccccc2)NC(=O)[C@@H](NC(=O)c2ccc(Cl)s2)CSCc2cccc(n2)CSCCN1 has what recorded half-life?
27

Item O=C(N[C@H]1CSCCS(=O)(=O)CCSCCNC(=O)C2(CC2)CNC(=O)[C@H](Cc2ccccc2)NC1=O)c1ccc(Cl)s1 has what recorded half-life?
24

meta.source: paper PMC11062899
